Biological target: Voltage-gated potassium channel, KQT; KCNQ2(Kv7.2)/KCNQ3(Kv7.3) (Homo sapiens) (UniProt O43526+O43525)
Experiment: Activation of human Kv7.2/7.3 by patch clamp method relative to ML213
Would you mind telling me the reported %max of each entry?
Give bare numbers, in %.

> print(dat)
                                   molecule  quantity.unit  observed.value
1  O=C(N[C@@H](CO)c1cccc(C(F)(F)F)c1)[C@H]1CC(F)(F)CC[C@@H]1c1ccccc1              %              96
2  C[C@H](NC(=O)c1cc(C(F)(F)F)ccc1Oc1ccccc1)c1cccc(S(C)(=O)=O)c1              %             134
3  O=C(N[C@@H](CO)c1cccc(Cl)c1)[C@H]1CC(F)(F)CC[C@@H]1c1ccccc1              %             141

Q. Look up and state reported %max for CS(=O)(=O)c1cccc([C@H](CO)NC(=O)c2cc(S(F)(F)(F)(F)F)ccc2Oc2ccccc2)c1
A. 101

###

Would you mind telling me the reported EC50 of each entry?
Target: Voltage-gated potassium channel KCNQ3/KCNQ5 (Homo sapiens, UniProt O43525+Q9NR82)
Sequence (O43525 whole entry): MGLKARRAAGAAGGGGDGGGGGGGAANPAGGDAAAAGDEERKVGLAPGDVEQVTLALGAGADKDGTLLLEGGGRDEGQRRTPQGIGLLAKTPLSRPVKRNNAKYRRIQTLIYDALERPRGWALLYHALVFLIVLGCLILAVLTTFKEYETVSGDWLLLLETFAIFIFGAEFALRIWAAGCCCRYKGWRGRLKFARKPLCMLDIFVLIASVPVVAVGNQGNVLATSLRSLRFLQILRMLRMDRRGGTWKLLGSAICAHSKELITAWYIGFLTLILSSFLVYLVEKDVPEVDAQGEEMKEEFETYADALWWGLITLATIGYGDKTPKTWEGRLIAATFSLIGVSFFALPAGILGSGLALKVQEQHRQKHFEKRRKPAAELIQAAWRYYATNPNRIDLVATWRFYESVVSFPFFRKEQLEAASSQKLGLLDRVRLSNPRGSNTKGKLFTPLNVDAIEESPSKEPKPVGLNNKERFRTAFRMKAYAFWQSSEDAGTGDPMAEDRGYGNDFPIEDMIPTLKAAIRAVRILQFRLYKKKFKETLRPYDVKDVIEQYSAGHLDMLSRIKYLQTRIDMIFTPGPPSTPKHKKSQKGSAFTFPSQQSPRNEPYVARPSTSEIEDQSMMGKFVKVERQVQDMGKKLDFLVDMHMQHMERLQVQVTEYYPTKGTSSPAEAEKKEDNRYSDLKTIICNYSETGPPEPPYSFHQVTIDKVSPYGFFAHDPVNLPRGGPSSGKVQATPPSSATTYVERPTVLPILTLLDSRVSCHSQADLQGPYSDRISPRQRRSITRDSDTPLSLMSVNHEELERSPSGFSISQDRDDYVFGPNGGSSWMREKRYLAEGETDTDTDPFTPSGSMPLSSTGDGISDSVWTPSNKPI
Sequence (Q9NR82 whole entry): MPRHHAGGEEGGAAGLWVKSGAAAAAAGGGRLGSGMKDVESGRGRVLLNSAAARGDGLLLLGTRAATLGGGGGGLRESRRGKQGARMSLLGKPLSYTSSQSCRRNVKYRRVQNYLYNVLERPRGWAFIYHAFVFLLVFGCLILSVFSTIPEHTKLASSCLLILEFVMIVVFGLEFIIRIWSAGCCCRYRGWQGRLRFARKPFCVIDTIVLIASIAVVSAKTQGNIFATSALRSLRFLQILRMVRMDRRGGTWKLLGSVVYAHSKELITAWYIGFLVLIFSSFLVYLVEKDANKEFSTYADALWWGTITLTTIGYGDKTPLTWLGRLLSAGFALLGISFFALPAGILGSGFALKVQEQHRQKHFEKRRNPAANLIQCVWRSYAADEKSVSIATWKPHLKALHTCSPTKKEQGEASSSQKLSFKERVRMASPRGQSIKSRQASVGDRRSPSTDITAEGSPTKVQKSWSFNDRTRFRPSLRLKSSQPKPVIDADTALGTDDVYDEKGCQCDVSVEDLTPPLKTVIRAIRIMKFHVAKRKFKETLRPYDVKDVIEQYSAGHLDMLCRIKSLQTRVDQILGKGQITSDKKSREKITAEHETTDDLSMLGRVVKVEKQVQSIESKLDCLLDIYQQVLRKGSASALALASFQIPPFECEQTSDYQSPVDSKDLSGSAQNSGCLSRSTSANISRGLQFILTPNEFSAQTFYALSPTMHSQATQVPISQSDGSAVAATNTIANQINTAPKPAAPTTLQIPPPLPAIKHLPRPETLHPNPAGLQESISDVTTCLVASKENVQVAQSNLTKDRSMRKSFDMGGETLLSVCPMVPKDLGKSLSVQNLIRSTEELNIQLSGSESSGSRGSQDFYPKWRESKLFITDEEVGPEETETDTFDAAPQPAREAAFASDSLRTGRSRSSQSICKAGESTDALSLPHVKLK
Test: Activation of human Kv7.3/7.5 by patch clamp method
Give bare numbers, in nM.

Known EC50 results, listed for orientation:
> print(dat)
                                   compound  observed.value
1  O=C(N[C@@H](CO)c1cccc(Cl)c1)[C@H]1CC(F)(F)CC[C@@H]1c1ccccc1             360
2  CS(=O)(=O)c1cccc([C@H](CO)NC(=O)c2cc(S(F)(F)(F)(F)F)ccc2Oc2ccccc2)c1              80

Here are 4 compounds. What values of EC50 were reported for them?
1. C[C@H](NC(=O)c1cc(F)c(F)cc1Oc1ccccc1)c1cccc(S(C)(=O)=O)c1
2. O=C(N[C@@H](CO)c1cccc(C(F)(F)F)c1)[C@H]1CC(F)(F)CC[C@@H]1c1ccccc1
3. C[C@H](NC(=O)[C@H]1CC(F)(F)CC[C@@H]1c1ccccc1)c1ccccc1
4. Cc1cc(C)c(NC(=O)C2CC3CCC2C3)c(C)c1 (configuration not stated)

A.
[200, 250, 400, 500]

###

Target: Potassium voltage-gated channel subfamily KQT member 4 (Homo sapiens, UniProt P56696)
Sequence (P56696 whole entry): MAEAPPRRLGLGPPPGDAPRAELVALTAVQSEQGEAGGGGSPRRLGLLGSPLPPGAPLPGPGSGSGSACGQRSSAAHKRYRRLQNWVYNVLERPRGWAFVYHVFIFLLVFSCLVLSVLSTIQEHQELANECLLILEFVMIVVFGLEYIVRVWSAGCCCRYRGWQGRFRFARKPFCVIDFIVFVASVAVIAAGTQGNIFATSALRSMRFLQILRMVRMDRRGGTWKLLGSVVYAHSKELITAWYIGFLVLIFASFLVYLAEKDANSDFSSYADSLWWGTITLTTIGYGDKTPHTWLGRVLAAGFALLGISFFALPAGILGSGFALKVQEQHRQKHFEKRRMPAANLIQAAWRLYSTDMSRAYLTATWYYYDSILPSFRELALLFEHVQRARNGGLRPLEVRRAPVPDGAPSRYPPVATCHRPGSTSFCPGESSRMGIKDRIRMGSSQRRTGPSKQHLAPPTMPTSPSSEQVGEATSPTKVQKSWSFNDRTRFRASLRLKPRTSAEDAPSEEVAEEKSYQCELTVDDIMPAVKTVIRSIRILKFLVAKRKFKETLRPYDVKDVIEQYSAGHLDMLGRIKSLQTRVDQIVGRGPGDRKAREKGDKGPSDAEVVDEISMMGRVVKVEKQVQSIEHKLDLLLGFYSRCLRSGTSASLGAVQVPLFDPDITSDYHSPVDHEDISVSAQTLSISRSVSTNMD
Test: Activation of human Kv7.4 by patch clamp method
Lab note: anything with EC50 below 0.2 µM is marked Fulfilled; values at 0.2 µM or higher are marked Not fulfilled.

Some entries whose results are on file:
> print(dat)
                                   molecule    class.label
1  Cc1cc(C)c(NC(=O)C2CC3CCC2C3)c(C)c1 (configuration not stated)  Not fulfilled
2  C[C@H](NC(=O)[C@H]1CC(F)(F)CC[C@@H]1c1ccccc1)c1ccccc1  Not fulfilled
3          O=C(Nc1ccc(Cl)nc1)c1ccc(F)c(F)c1  Not fulfilled
4  CS(=O)(=O)c1cccc([C@H](CO)NC(=O)c2cc(S(F)(F)(F)(F)F)ccc2Oc2ccccc2)c1  Not fulfilled
5  O=C(N[C@@H](CO)c1cccc(C(F)(F)F)c1)[C@H]1CC(F)(F)CC[C@@H]1c1ccccc1      Fulfilled

Q. Say whether its EC50 is strictly beneath 0.2 µM. Entry: C[C@H](NC(=O)c1cc(F)c(F)cc1Oc1ccccc1)c1cccc(S(C)(=O)=O)c1
A. Fulfilled

Q. Say whether its EC50 is strictly beneath 0.2 µM. Entry: O=C(N[C@@H](CO)c1cccc(Cl)c1)[C@H]1CC(F)(F)CC[C@@H]1c1ccccc1
A. Fulfilled

###

Would you mind telling me the reported %max of each entry?
Target: Voltage-gated potassium channel, KQT; KCNQ2(Kv7.2)/KCNQ3(Kv7.3) (Homo sapiens) (UniProt O43526+O43525)
Assay: Activation of human Kv7.2/7.3 by patch clamp method relative to ML213
Give bare numbers, in %.

Known %max results, listed for orientation:
> print(dat)
                                   molecule  observed.value
1  O=C(N[C@@H](CO)c1ccccc1)[C@H]1CC(F)(F)CC[C@@H]1c1ccccc1             108
2  C[C@H](NC(=O)c1cc(F)c(F)cc1Oc1ccccc1)c1cccc(S(C)(=O)=O)c1             132
3  CS(=O)(=O)c1cccc(CNC(=O)c2cc(C(F)(F)F)ccc2Oc2ccccc2)c1             245

Here are 6 molecules. What values of %max were reported for them?
1. CS(=O)(=O)c1cccc(CNC(=O)c2cc(S(F)(F)(F)(F)F)ccc2Oc2ccccc2)c1
2. O=C(N[C@@H](CO)c1ccccc1)[C@H]1CCCC[C@@H]1c1ccccc1
3. CS(=O)(=O)c1cccc([C@H](CO)NC(=O)c2cc(C(F)(F)F)ccc2Oc2ccccc2)c1
4. C[C@H](NC(=O)[C@H]1CCCC[C@@H]1c1ccccc1)c1ccccc1
5. C[C@H](NC(=O)[C@H]1CC(F)(F)CC[C@@H]1c1ccccc1)c1ccccc1
6. CS(=O)(=O)c1cccc(CNC(=O)c2cc(C(F)(F)F)ccc2Sc2ccccc2)c1

A.
185
165
77
115
140
175

###

Would you mind telling me the reported Kp of each entry?
Test: Ratio of drug level in brain to blood of iv dosed mouse
Format: ADME, organism-based
Details: brain and blood
Numbers only.

Here are 2 compounds. What values of Kp were reported for them?
1. O=C(N[C@@H](CO)c1cccc(Cl)c1)[C@H]1CC(F)(F)CC[C@@H]1c1ccccc1
2. C[C@H](NC(=O)c1cc(F)c(F)cc1Oc1ccccc1)c1cccc(S(C)(=O)=O)c1

A.
1. 0.8
2. 1.3

###

Molecular target: Voltage-gated potassium channel, KQT; KCNQ2(Kv7.2)/KCNQ3(Kv7.3) (Homo sapiens, UniProt O43525+O43526)
Sequence (O43526 whole entry): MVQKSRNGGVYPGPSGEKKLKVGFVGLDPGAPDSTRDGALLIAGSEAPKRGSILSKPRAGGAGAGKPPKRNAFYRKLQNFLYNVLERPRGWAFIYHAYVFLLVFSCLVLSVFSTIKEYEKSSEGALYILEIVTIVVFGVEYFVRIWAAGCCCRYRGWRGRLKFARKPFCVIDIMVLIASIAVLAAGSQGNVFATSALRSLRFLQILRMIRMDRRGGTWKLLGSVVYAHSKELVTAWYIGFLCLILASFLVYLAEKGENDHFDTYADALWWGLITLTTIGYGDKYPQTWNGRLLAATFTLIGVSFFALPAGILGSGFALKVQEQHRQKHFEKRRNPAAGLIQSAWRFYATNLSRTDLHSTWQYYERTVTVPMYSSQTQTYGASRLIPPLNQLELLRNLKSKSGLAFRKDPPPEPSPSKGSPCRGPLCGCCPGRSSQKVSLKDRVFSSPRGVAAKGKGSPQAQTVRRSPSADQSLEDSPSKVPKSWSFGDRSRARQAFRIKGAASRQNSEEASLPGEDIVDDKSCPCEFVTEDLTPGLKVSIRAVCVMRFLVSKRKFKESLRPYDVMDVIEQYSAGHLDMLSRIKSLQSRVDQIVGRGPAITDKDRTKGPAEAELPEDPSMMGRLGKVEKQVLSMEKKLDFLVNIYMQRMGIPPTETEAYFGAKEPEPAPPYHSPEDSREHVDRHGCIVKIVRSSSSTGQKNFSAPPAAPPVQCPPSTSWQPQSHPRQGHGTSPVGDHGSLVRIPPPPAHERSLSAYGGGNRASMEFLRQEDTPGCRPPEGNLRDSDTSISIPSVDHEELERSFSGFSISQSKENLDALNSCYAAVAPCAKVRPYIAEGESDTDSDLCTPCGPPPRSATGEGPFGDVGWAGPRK
Sequence (O43525 whole entry): as the sequence (O43525 whole entry) above
Experiment: Activation of human Kv7.2/7.3 by patch clamp method
Would you mind telling me the reported pEC50 of each entry?
One number for each entry, as −log10 of the molar value.

Known pEC50 results, listed for orientation:
> print(dat)
                                   molecule  endpoint.label  observed.value
1  CS(=O)(=O)c1cccc(CNC(=O)c2cc(C(F)(F)F)ccc2Oc2ccccc2)c1           pEC50            6.80
2  CS(=O)(=O)c1cccc(CNC(=O)c2cc(C(F)(F)F)ccc2Sc2ccccc2)c1           pEC50            6.70
3  O=C(N[C@@H](CO)c1ccccc1)[C@H]1CC(F)(F)CC[C@@H]1c1ccccc1           pEC50            5.89

Q. Look up and state reported pEC50 for CS(=O)(=O)c1cccc(CNC(=O)c2cc(S(F)(F)(F)(F)F)ccc2Oc2ccccc2)c1
A. 7.10

###

Target: Voltage-gated potassium channel, KQT; KCNQ2(Kv7.2)/KCNQ3(Kv7.3) (Homo sapiens, UniProt O43525+O43526)
Experiment: Activation of human Kv7.2/7.3 by patch clamp method
Would you mind telling me the reported log10(EC50) of each entry?
Log scale reminder: EC50 in nM, then log10 taken.

Known log10(EC50) results, listed for orientation:
> print(dat)
                                   compound  observed.value
1  CS(=O)(=O)c1cccc([C@H](CO)NC(=O)c2cc(C(F)(F)F)ccc2Oc2ccccc2)c1            1.90
2  C[C@H](NC(=O)c1cc(C(F)(F)F)ccc1Oc1ccccc1)c1cccc(S(C)(=O)=O)c1            1.60
3  Cc1cc(C)c(NC(=O)C2CC3CCC2C3)c(C)c1 (stereo not given)            1.60
4          O=C(Nc1ccc(Cl)nc1)c1ccc(F)c(F)c1            2.66
5  O=C(N[C@@H](CO)c1ccccc1)[C@H]1CCCC[C@@H]1c1ccccc1            2.90

Kindly review the next compound as well.
Q. Look up and state reported log10(EC50) for C[C@H](NC(=O)[C@H]1CCCC[C@@H]1c1ccccc1)c1ccccc1
A. 2.40

###

Target: Voltage-gated potassium channel, KQT; KCNQ2(Kv7.2)/KCNQ3(Kv7.3) (Homo sapiens) (UniProt O43526+O43525)
Assay: Activation of human wild type Kv7.2/7.3 expressed in CHO cells assessed as 86Rb efflux at 0.001 to 100 uM after 10 mins by microbeta liquid scintillation counting analysis
Format: cell-based
ENDPOINT LABEL: log10 Activity (log10 of the value in µM)
Log scale reminder: Activity in µM, then log10 taken.

Known log10 Activity results, listed for orientation:
> print(dat)
                                   compound  observed.value
1  Cc1cc(C)c(NC(=O)C2CC3CCC2C3)c(C)c1 (stereo unspecified)           -1.40
2         CCOC(=O)Nc1ccc(NCc2ccc(F)cc2)cc1N           -0.49
3  CS(=O)(=O)c1cccc(CNC(=O)c2cc(C(F)(F)F)ccc2Sc2ccccc2)c1           -1.70
4  C[C@H](NC(=O)[C@H]1CCCC[C@@H]1c1ccccc1)c1ccccc1           -1.00
5          O=C(Nc1ccc(Cl)nc1)c1ccc(F)c(F)c1           -0.34

Kindly review the next compound as well.
Q. Look up and state reported log10 Activity for CS(=O)(=O)c1cccc(CNC(=O)c2cc(C(F)(F)F)ccc2Oc2ccccc2)c1
A. -1.30
